Field: inhibition at 1.56 µg/mL. Provide a value for each of the molecules that follow.
Assay: Inhibition of ROS generation in human PMN at 1.56 ug/ml after 50 mins by luminol-based chemiluminescence assay relative to control
Format: functional
Give bare numbers, in %.

# MOLECULE, inhibition at 1.56 µg/mL (%)
records = [
    ("Cc1c(C(=O)NC(CO)Cc2ccccc2)[nH]c2ccc(Cl)cc12 (centres undefined)", 45),
]

Below is a list of molecules. For each, state its recorded inhibition at 1.56 µg/mL.
1. O=C(NC(CO)Cc1ccccc1)c1cc2ccccc2[nH]1 (centres undefined)
2. CCc1c(C(=O)NC(CO)Cc2ccccc2)[nH]c2ccc(Br)cc12 (centres undefined)
3. Cc1c2cc(Cl)ccc2n2cc(Cc3ccccc3)[nH]c(=O)c12

[21, 31, 60]
